Kindly state concentration at 8 h for each of the entries shown.
- assayInfo: Food effect on administration of sepiapterin: plasma sepiapterin and BH4 concentrations, fasted vs fed
- Type: in vivo, human
- runParameters: human, plasma, oral, 10 mg/kg, fasted; sepiapterin 10 mg/kg oral; 8 h; read-out: Concentration in Plasma, Mean
A complete answer gives the number followed by the unit.

>>> reportedvalue("C[C@H](O)[C@H](O)[C@H]1CNc2nc(N)[nH]c(=O)c2N1 [BH4, Tetrahydrobiopterin]")
"248 nM"

Turning now to a further compound:
So for C[C@H](O)C(=O)C1=Nc2c(nc(N)[nH]c2=O)NC1 [sepiapterin, Sepiapterin] , the logged concentration at 8 h turned out to be 0 nM

----------
- assayInfo: Pharmacokinetic analysis of multiple doses of sepiapterin (once daily for 7 days, fed subjects)
- Type: in vivo, human
- runParameters: human, plasma, 20 mg/kg, Day 1; sepiapterin 20 mg/kg once daily; fed; read-out: Cmax
experimentalEndpoint: Cmax

So for C[C@H](O)[C@H](O)[C@H]1CNc2nc(N)[nH]c(=O)c2N1 [BH4, Tetrahydrobiopterin] , the logged Cmax turned out to be 496 ng/mL

----------
Kindly state concentration at 2 h for each of the entries shown.
- assayInfo: Food effect on administration of sepiapterin: plasma sepiapterin and BH4 concentrations, fasted vs fed
- Format: in vivo, human
- runParameters: human, plasma, oral, 10 mg/kg, fed (high-fat meal); sepiapterin 10 mg/kg oral; 2 h; read-out: Concentration in Plasma, Median
Numbers only, in nM.

>>> reportedvalue("C[C@H](O)C(=O)C1=Nc2c(nc(N)[nH]c2=O)NC1 [sepiapterin, Sepiapterin]")
2.91

Turning now to a further compound:
So for C[C@H](O)[C@H](O)[C@H]1CNc2nc(N)[nH]c(=O)c2N1 [BH4, Tetrahydrobiopterin] , the logged concentration at 2 h turned out to be 554

----------
- assayInfo: Pharmacokinetic analysis of multiple doses of sepiapterin (once daily for 7 days, fed subjects)
- Format: in vivo, human
- runParameters: human, plasma, 20 mg/kg, Day 1; sepiapterin 20 mg/kg once daily; fed; read-out: AUC0-24
experimentalEndpoint: AUC(0-t) (ng·h/mL)
One number for each entry, in ng·h/mL.

So for C[C@H](O)[C@H](O)[C@H]1CNc2nc(N)[nH]c(=O)c2N1 [BH4, Tetrahydrobiopterin] , the logged AUC(0-t) turned out to be 3030

----------
- assayInfo: Food effect on administration of sepiapterin: plasma sepiapterin and BH4 concentrations, fasted vs fed
- Type: in vivo, human
- runParameters: human, plasma, oral, 10 mg/kg, fasted; sepiapterin 10 mg/kg oral; 8 h; read-out: Concentration in Plasma, Minimum
experimentalEndpoint: concentration at 8 h (nM)
Numbers only, in nM.

>>> reportedvalue("C[C@H](O)C(=O)C1=Nc2c(nc(N)[nH]c2=O)NC1 [sepiapterin, Sepiapterin]")
0

So for C[C@H](O)[C@H](O)[C@H]1CNc2nc(N)[nH]c(=O)c2N1 [BH4, Tetrahydrobiopterin] , the logged concentration at 8 h turned out to be 90.2

----------
- assayInfo: Food effect on administration of sepiapterin: plasma sepiapterin and BH4 concentrations, fasted vs fed
- Type: in vivo, human
- runParameters: human, plasma, oral, 10 mg/kg, fed (high-fat meal); sepiapterin 10 mg/kg oral; 1 h; read-out: Concentration in Plasma, Median
experimentalEndpoint: concentration at 1 h

>>> reportedvalue("C[C@H](O)C(=O)C1=Nc2c(nc(N)[nH]c2=O)NC1 [sepiapterin, Sepiapterin]")
"2.42 nM"

So for C[C@H](O)[C@H](O)[C@H]1CNc2nc(N)[nH]c(=O)c2N1 [BH4, Tetrahydrobiopterin] , the logged concentration at 1 h turned out to be 160 nM
